// provenance: patent US20100120778A1

Target: human LXRα (Homo sapiens, UniProt Q13133)
Sequence (Q13133 1-447): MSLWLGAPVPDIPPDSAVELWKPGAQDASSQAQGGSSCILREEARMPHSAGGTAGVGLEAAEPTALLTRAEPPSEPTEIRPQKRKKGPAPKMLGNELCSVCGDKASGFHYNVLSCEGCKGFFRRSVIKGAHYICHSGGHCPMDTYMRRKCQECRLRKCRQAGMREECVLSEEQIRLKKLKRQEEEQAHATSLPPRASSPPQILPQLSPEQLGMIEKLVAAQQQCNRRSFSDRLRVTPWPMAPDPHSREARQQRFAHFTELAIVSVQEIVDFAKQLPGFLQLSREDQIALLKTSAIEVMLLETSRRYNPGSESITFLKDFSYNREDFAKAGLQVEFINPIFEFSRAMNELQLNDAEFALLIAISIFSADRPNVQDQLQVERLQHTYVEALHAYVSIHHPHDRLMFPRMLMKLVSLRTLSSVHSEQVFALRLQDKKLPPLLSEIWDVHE
assay_readout: IC50

Consider the following illustrative entries.
>>> assay_value("Cc1nc2c(Cl)cccc2nc1Oc1ccc(-c2cccc(S(C)(=O)=O)c2)cc1")
"> 1 µM"
>>> assay_value("Cc1nc2cccc(C#N)c2nc1-c1ccc(-c2cccc(S(C)(=O)=O)c2)cc1")
"> 1 µM"
>>> assay_value("CCS(=O)(=O)c1cccc(-c2ccc(-c3nc4cccc(C(F)(F)F)c4nc3C)cc2)c1")
"0.265 µM"
>>> assay_value("Cc1nc2c(C(F)(F)F)cccc2nc1-c1cc(Oc2cccc(S(=O)(=O)CCCF)c2)ccc1Cl")
"2.19 µM"
>>> assay_value("Cc1nc2c(C(F)(F)F)cccc2nc1-c1cc(Oc2cc(Cl)cc(S(C)(=O)=O)c2)ccc1Cl")
"> 1 µM"
>>> assay_value("Cc1nc2c(C(F)(F)F)cccc2nc1-c1cc(Oc2cccc(S(=O)(=O)CCCCl)c2)ccc1Cl")
"0.401 µM"
>>> assay_value("Cc1nc2cccc(Cl)c2nc1-c1ccc(-c2cccc(S(C)(=O)=O)c2)cc1")
"> 1 µM"

Now turn to the next compound.
Note down IC50 recorded for `CNS(=O)(=O)c1cccc(-c2ccc(-c3nc4cccc(C(F)(F)F)c4nc3C)cc2)c1`
> 1 µM

* * *

Biological target: human LXRα (Homo sapiens, UniProt Q13133)
Sequence (Q13133 1-447): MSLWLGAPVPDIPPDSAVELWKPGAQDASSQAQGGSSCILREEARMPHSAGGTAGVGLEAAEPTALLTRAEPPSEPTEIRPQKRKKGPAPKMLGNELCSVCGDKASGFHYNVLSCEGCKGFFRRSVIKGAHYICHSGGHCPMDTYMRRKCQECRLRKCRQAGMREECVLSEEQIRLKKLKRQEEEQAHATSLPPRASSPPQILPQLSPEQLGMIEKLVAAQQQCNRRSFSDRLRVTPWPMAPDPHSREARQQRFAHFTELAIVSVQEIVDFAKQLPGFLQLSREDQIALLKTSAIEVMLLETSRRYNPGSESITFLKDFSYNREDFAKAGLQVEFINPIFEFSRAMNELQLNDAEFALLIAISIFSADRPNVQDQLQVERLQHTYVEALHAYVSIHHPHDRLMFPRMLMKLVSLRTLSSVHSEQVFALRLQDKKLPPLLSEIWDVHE
The reader will find reported IC50 values listed item by item below.
Enter your answer as a number in nM; do not include the unit.

>>> assay_value("Cc1nc2c(Cl)cccc2nc1Oc1cccc(-c2cccc(S(C)(=O)=O)c2)c1")
818

Write down the reported IC50 (system: human LXRα (Homo sapiens, UniProt Q13133)) of `Cc1nc2c(C(F)(F)F)cccc2nc1-c1cc(Oc2ccccc2S(C)(=O)=O)ccc1Cl`
1620

Write down the reported IC50 (system: human LXRα (Homo sapiens, UniProt Q13133)) of `Cc1nc2cccc(C(F)(F)F)c2nc1-c1cc(Oc2cccc(S(=O)(=O)CCCO)c2)ccc1Cl`
979

Write down the reported IC50 (system: human LXRα (Homo sapiens, UniProt Q13133)) of `Cc1nc2c(C(F)(F)F)cccc2nc1-c1cc(Oc2cccc(S(=O)(=O)CCCC#N)c2)ccc1Cl`
405

Write down the reported IC50 (system: human LXRα (Homo sapiens, UniProt Q13133)) of `Cc1nc2cccc(C(F)(F)F)c2nc1-c1cccc(Oc2cccc(S(C)(=O)=O)c2)c1`
1290

* * *

The reader will find reported pIC50 values listed item by item below.
Target: human LXRβ (Homo sapiens, UniProt P55055)
Sequence (P55055 1-460): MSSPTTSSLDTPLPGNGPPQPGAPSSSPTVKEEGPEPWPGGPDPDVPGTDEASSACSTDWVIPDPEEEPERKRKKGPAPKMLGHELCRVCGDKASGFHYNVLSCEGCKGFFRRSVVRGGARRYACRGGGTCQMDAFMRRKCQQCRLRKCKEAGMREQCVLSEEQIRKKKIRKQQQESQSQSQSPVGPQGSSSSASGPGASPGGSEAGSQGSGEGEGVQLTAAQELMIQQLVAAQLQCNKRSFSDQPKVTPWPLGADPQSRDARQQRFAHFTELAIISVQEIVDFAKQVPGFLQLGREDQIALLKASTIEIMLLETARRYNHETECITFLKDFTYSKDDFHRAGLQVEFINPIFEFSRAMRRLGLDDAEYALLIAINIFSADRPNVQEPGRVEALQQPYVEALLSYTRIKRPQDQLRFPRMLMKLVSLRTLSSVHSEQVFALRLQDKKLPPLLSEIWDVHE
Value format note: pIC50 is -log10 of concentration (mol/L); just state the number.

Note down pIC50 recorded for `Cc1nc2ccccc2nc1-c1cc(Oc2cccc(S(C)(=O)=O)c2)ccc1Cl`
6.44

Note down pIC50 recorded for `Cc1nc2cccc(C(F)(F)F)c2nc1-c1ccc(-c2cncc(S(C)(=O)=O)c2)cc1`
6.91

Note down pIC50 recorded for `CCc1nc2cccc(C(F)(F)F)c2nc1-c1ccc(-c2cccc(S(C)(=O)=O)c2)cc1`
6.45

Note down pIC50 recorded for `CS(=O)(=O)c1cccc(Oc2cccc(-c3cnc4cccc(C(F)(F)F)c4n3)c2)c1`
5.71

* * *

Molecular target: human LXRβ (Homo sapiens)
Construct: biotin (biotinylated); made in house; host or cells: E. coli
Sequence (P55055 1-460): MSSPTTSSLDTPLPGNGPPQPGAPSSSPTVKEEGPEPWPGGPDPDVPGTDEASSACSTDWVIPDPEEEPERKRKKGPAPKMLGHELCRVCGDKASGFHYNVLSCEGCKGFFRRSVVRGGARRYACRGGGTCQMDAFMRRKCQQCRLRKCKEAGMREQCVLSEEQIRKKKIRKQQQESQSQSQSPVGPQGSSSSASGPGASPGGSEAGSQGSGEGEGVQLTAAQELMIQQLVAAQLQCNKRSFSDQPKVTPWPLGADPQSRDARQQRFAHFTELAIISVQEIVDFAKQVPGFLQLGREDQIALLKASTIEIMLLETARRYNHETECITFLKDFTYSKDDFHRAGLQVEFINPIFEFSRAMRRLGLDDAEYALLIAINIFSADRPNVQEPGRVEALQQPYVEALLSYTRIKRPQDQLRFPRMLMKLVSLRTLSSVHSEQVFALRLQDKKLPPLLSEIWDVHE
Assay: Ligand-binding test procedure for human LXRβ (3H T0901317 tracer, flash plates)
Conditions: biotinylated hLXRβ, tracer 3H T0901317, +4° C. over night
assay_readout: IC50

Consider the following illustrative entries.
>>> assay_value("Cc1nc2c(C(F)(F)F)cccc2nc1-c1ccc(Oc2cccc(S(C)(=O)=O)c2)cc1 [Example 12]")
"6400 nM"
>>> assay_value("CNS(=O)(=O)c1cccc(-c2ccc(Oc3cnc4c(Cl)cccc4n3)cc2)c1 [Example 86]")
"> 1000 nM"
>>> assay_value("CCS(=O)(=O)c1cccc(Oc2ccc(Cl)c(-c3nc4cccc(C(F)(F)F)c4nc3C)c2)c1 [Example 56]")
"12 nM"

Note down IC50 recorded for Cc1nc2cccc(C(F)(F)F)c2nc1-c1cc(Oc2ccc(S(=O)(=O)CC#N)cc2)ccc1Cl [Example 38]
> 1000 nM

Note down IC50 recorded for Cc1nc2cccc(C(F)(F)F)c2nc1-c1cc(Oc2cccc(S(=O)(=O)C(C)C)c2)ccc1Cl [Example 62]
38 nM

Note down IC50 recorded for Cc1nc2c(C(F)(F)F)cccc2nc1-c1cc(Oc2cccc(S(C)(=O)=O)c2)ccc1Cl [Example 36]
19.5 nM

Note down IC50 recorded for CS(=O)(=O)c1cccc(-c2ccc(-c3cnc4cccc(C(F)(F)F)c4n3)cc2)c1 [Example 25]
> 1000 nM

Note down IC50 recorded for Cc1nc2c(C(F)(F)F)cccc2nc1-c1cc(Oc2cc(Cl)cc(S(C)(=O)=O)c2)ccc1Cl [Example 60]
159 nM

Note down IC50 recorded for Cc1nc2c(C(F)(F)F)cccc2nc1-c1cccc(-c2ccc(S(C)(=O)=O)cc2)c1 [Example 20]
> 1000 nM

Note down IC50 recorded for Cc1nc2c(Cl)cccc2nc1Oc1ccc(-c2cccc(S(N)(=O)=O)c2)cc1 [Example 92]
2470 nM

Note down IC50 recorded for Cc1nc2c(C(F)(F)F)cccc2nc1-c1ccc(-c2ccc(S(C)(=O)=O)cc2)cc1 [Example 18]
> 1000 nM

Note down IC50 recorded for Cc1nc2c(Cl)cccc2nc1Oc1ccc(-c2cccc(S(C)(=O)=O)c2)cc1 [Example 82]
1030 nM

Note down IC50 recorded for Cc1nc2cccc(Cl)c2nc1-c1cccc(Oc2cccc(S(C)(=O)=O)c2)c1 [Example 10]
2210 nM

Note down IC50 recorded for Cc1nc2cccc(C(F)(F)F)c2nc1-c1cc(Oc2cc(Cl)cc(S(C)(=O)=O)c2)ccc1Cl [Example 65]
453 nM

Note down IC50 recorded for CS(=O)(=O)c1cccc(Oc2cccc(-c3cnc4c(Cl)cccc4n3)c2)c1 [Example 8]
1650 nM

Note down IC50 recorded for Cc1nc2c(C(F)(F)F)cccc2nc1-c1ccc(-c2ccccc2S(C)(=O)=O)cc1 [Example 21]
> 1000 nM
